The next entries give measured Kd for MAP kinase-interacting serine/threonine-protein kinase 2 (Homo sapiens, UniProt Q9HBH9).
readoutKind: Kd

Nc1nc(Nc2ccc(S(N)(=O)=O)cc2)nn1C(=O)c1c(F)cccc1F ... > 10 µM
CCOc1cc2ncc(C#N)c(Nc3ccc(F)c(Cl)c3)c2cc1NC(=O)/C=C/CN(C)C ... > 10 µM
NC(=O)c1ccc(-c2nc(-c3ccc4c(c3)OCO4)c(-c3ccccn3)[nH]2)cc1 ... > 10 µM
COCC(=O)NC/C=C/c1ccc2ncnc(Nc3ccc(Oc4ccc(C)nc4)c(C)c3)c2c1 ... 0.84 µM
Oc1ccc(-c2nc(-c3ccncc3)c(-c3ccc(F)cc3)[nH]2)cc1 ... > 10 µM

====

Below, each of the compounds is paired with its reported Kd value.
# assayedTarget: UniProt Q13705
# Sequence (Q13705 whole entry): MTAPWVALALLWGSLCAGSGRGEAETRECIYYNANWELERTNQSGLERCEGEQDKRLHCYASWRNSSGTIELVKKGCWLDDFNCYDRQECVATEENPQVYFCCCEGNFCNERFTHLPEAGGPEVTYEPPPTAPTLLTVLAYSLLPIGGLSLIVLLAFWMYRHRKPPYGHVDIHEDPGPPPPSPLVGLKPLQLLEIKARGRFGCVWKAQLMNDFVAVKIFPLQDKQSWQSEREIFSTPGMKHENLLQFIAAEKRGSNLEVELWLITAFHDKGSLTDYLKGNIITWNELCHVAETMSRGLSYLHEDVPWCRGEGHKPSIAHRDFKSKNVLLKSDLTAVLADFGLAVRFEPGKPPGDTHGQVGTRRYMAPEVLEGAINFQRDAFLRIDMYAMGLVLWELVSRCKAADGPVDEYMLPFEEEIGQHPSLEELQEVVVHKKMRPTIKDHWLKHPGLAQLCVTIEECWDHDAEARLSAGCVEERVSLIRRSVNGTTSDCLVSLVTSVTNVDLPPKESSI
readoutKind: Kd (µM)

Oc1ccc(-c2nc(-c3ccncc3)c(-c3ccc(F)cc3)[nH]2)cc1 [SB-202190] ... 4.8
Nc1nc(Nc2ccc(S(N)(=O)=O)cc2)nn1C(=O)c1c(F)cccc1F [JNJ-7706621] ... 5.9

====

# assayedTarget: Epidermal growth factor receptor (Homo sapiens, UniProt P00533, L747-T751DEL)
pKd: −log10 of the molar value.
# Lookup of reported pKd keyed by entry
readoutKind: pKd

Nc1nc(Nc2ccc(S(N)(=O)=O)cc2)nn1C(=O)c1c(F)cccc1F ... < 5.00
NC(=O)c1ccc(-c2nc(-c3ccc4c(c3)OCO4)c(-c3ccccn3)[nH]2)cc1 ... < 5.00

====

Observed Kd values for Serine/threonine-protein kinase 24 (Homo sapiens, UniProt Q9Y6E0) are listed in what follows.
readoutKind: Kd

COCC(=O)NC/C=C/c1ccc2ncnc(Nc3ccc(Oc4ccc(C)nc4)c(C)c3)c2c1 [CP-724714] ... > 10 µM
CCOc1cc2ncc(C#N)c(Nc3ccc(F)c(Cl)c3)c2cc1NC(=O)/C=C/CN(C)C [PELITINIB] ... 2.1 µM
Oc1ccc(-c2nc(-c3ccncc3)c(-c3ccc(F)cc3)[nH]2)cc1 [SB-202190] ... > 10 µM
CCN1CCN(Cc2ccc(NC(=O)Nc3ccc(Oc4cc(NC)ncn4)cc3)cc2C(F)(F)F)CC1 [AST-487] ... > 10 µM
NC(=O)c1ccc(-c2nc(-c3ccc4c(c3)OCO4)c(-c3ccccn3)[nH]2)cc1 [SB-431542] ... > 10 µM

====

Property: Kd; scope: individual compounds
# assayedTarget: Activin receptor type-1B (Homo sapiens, UniProt P36896)
# Sequence (P36896 whole entry): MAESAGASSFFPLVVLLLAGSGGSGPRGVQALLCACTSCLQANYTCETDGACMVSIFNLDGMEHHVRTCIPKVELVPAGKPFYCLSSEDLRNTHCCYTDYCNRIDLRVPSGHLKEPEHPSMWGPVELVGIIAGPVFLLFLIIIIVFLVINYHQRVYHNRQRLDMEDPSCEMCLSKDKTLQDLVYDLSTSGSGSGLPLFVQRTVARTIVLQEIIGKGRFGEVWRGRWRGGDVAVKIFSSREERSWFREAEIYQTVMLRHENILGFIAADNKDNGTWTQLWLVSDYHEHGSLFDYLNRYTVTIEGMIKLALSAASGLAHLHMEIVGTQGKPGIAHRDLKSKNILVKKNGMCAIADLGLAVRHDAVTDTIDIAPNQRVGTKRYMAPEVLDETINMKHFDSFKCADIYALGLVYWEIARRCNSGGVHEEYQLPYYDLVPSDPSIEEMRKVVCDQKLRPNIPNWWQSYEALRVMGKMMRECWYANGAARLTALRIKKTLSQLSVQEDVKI
readoutKind: Kd

Oc1ccc(-c2nc(-c3ccncc3)c(-c3ccc(F)cc3)[nH]2)cc1 [SB-202190] ... 0.95 µM
Nc1nc(Nc2ccc(S(N)(=O)=O)cc2)nn1C(=O)c1c(F)cccc1F [JNJ-7706621] ... > 10 µM
COCC(=O)NC/C=C/c1ccc2ncnc(Nc3ccc(Oc4ccc(C)nc4)c(C)c3)c2c1 [CP-724714] ... > 10 µM
CCOc1cc2ncc(C#N)c(Nc3ccc(F)c(Cl)c3)c2cc1NC(=O)/C=C/CN(C)C [PELITINIB] ... > 10 µM
